Test: Blood sampling for THC and CBD plasma concentration after single oral dosing
Conditions: dog, plasma, oral, CBD concentration in blood plasma, mean of dogs 1-4; 0.12 mg/kg CBD + 0.24 mg/kg THC oral once; 0 h
Readout kind: concentration at 0 h (ng/mL)
Numbers only, in ng/mL.

Lookup result for `C=C(C)[C@@H]1CCC(C)=C[C@H]1c1c(O)cc(CCCCC)cc1O` ; measured concentration at 0 h: 0

---

Assay: Blood sampling for THC and CBD plasma concentration after single oral dosing
Settings: dog, plasma, po, 0.12 mg/kg, AUC for CBD concentration, canine, 0.12 mg/kg CBD in combination with 0.24 mg/kg THC
Readout kind: AUC

Lookup result for C=C(C)[C@@H]1CCC(C)=C[C@H]1c1c(O)cc(CCCCC)cc1O [CBD, Cannabidiol] ; measured AUC: 30 to 50 ng·h/mL
